// data source = patent US20260209362A1

Biological target: T1, human IL-12Rβ2 (human, UniProt Q99665 24-862)
T1 construct: Expressed on HEK293T cells transiently transfected with a pcDNA3 plasmid (Genscript clone OHu21785); also called hIL-12RB2; IL-12 receptor β2 subunit
T1 sequence: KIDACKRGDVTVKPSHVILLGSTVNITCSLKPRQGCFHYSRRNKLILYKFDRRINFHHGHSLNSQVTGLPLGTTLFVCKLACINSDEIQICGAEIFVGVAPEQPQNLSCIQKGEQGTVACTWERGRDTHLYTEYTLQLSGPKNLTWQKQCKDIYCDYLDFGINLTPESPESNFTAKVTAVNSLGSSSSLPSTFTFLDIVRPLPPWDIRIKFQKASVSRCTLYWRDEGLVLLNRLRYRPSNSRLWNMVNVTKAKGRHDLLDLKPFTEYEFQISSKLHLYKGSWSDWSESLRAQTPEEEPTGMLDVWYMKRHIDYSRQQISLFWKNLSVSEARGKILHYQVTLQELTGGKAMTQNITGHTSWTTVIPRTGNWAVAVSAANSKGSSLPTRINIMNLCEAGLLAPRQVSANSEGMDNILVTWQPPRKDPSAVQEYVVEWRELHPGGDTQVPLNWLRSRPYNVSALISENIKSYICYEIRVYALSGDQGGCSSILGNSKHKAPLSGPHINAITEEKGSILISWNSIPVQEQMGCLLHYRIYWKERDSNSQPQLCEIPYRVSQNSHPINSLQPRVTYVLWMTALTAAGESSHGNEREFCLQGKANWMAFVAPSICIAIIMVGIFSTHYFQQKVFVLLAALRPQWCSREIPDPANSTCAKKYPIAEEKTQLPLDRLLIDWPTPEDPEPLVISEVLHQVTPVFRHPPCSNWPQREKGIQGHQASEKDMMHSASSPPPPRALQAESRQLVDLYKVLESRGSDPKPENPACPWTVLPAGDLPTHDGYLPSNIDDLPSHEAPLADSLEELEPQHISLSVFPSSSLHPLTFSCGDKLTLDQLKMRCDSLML
Assay: flow cytometry, P.E. on transfected HEK293T cells
RESULT_TYPE: dMFI
// no unit string in output, number only

// known answers, use as guide
>  <BINDER>
anti-IL-12Rβ2 VHH clone 3CRH27 (VHH, not shown: small tags and cut ends, periplasmic extract) VHH: QVQLQESGGGLVQAGGSLRLSCTASGSIVSIYNMDWYRQAPGNEREWVASITSSGDPYYDGSAKGRFTISRDNAKMTVYLQMNSLKPEDTAVYYCKVPTEKGNYWGQGTQVTVSS

>  <dMFI>
812

$$$$
>  <BINDER>
anti-IL-12Rβ2 VHH clone 2CRH60 (VHH, not shown: small tags and cut ends, periplasmic extract) VHH: QVQLQESGGGSVQPGGSLRLTCAASGFTFSTSGMHWFRQAPGKGLEWVSSISSGGGDTYYTDSVKGRITISRDNAKNTLYLQLNDLKSEDTAVYYCSKDPSGATRGQGTQVTVSS

>  <dMFI>
1100

$$$$
>  <BINDER>
anti-IL-12Rβ2 VHH clone 3CAHS170 (VHH, not shown: small tags and cut ends, periplasmic extract) VHH: QVQLQESGGGLVQAGGSLRLSCVASGRTFSSYAMGWFRQGPGKEREFVAAISWSGVSIYYADSVKGRFTISRDNAKNTVYLQMNSLEPEDTAVYYCAGTEGAYTVAGGSTFGYDMDYWGKGTQVTVSS

>  <dMFI>
809

$$$$
>  <BINDER>
anti-IL-12Rβ2 VHH clone 3CRHS184 (VHH, not shown: small tags and cut ends, periplasmic extract) VHH: QVQLQESGGGLVQAGGSLVLSCAASGSAALIFLMSWYRQAPGKQRELVAEVSRYGSTTYADSVEGRFTISRDNAKNIVDLQMNSLKPEDTAVYYCKADQYYGDSLRSSWGRGTQLTVSS

>  <dMFI>
625

$$$$
>  <BINDER>
anti-IL-12Rβ2 VHH clone 3CRHM49 (VHH, not shown: small tags and cut ends, periplasmic extract; also called 21058) VHH: QVQLQESGGGLVQAGGSLRLSCAASGRTFSNYAMAWFRQAPGTEREFVAGLSGSGGDTAFYDNSVMGRFTISRDSAKNTMWLQINNLKPEDTAVYYCAAATHVVVSYGLVRRRGTYDYWGQGTQVTVSS

>  <dMFI>
759

$$$$

Requested field: dMFI. Item: anti-IL-12Rβ2 VHH clone 3CRHM73 (VHH, not shown: small tags and cut ends, periplasmic extract; also called 21060) VHH: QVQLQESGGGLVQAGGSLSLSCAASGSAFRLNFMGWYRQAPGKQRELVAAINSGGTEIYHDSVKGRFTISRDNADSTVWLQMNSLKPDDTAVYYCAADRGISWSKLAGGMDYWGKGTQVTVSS
397

Requested field: dMFI. Item: anti-IL-12Rβ2 VHH clone 3CRHS148 (VHH, not shown: small tags and cut ends, periplasmic extract) VHH: QVQLQESGGGLVQPGGSLRLSCIASGSIFSIYNMDWYRQAPGNQREWVASITPSGDPYYDDSAKGRFTISRDNAKMTVYLQMNSLKPEDTAVYYCKVPTEKGNYWGQGTQVTVSS
1030

Requested field: dMFI. Item: anti-IL-12Rβ2 VHH clone 3CRHS142 (VHH, not shown: small tags and cut ends, periplasmic extract) VHH: QVQLQESGGGLVQAGGSLRLSCVSSQTLVGIEAMGWYRQAPGKQRELVALITLNGGTFYADSVKGRFTISRDVAEHMLYLEMNSLNPEDTAVYFCVAGVESDNEEPTYWGQGTQVTVSS
210

Requested field: dMFI. Item: anti-IL-12Rβ2 VHH clone 3CRHM14 (VHH, not shown: small tags and cut ends, periplasmic extract) VHH: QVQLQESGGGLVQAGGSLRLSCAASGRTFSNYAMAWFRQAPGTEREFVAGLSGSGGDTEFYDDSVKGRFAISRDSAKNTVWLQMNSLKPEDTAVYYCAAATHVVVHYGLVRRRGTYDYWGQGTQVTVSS
689

Requested field: dMFI. Item: anti-IL-12Rβ2 VHH clone 3CRHS77 (VHH, not shown: small tags and cut ends, periplasmic extract) VHH: QVQLQESGGGLVQAGGSLRLSCTASGHTFSSYTTIGWFRQAPGKEREFVAAIGWSGDITDYADAVKGRFTISRHNVENTVYLQMNSLNPEDTAVYYCARGYSEYGVLSRNRGLYAYWGQGTQVTVSS
867

Requested field: dMFI. Item: anti-IL-12Rβ2 VHH clone 2CRH76 (VHH, not shown: small tags and cut ends, periplasmic extract) VHH: QVQLQESGGGLVQTGGSLRLSCVASGRTFNWSAMGWFRQPPGKEREVVATISGGGTSAYYADSVKGRFTISRDGAKNTLYLQMNSLKPEDTAVYYCAADRVDYRMTLTQNGNHYWGQGTQVTVSS
668

Requested field: dMFI. Item: anti-IL-12Rβ2 VHH clone 3CRHS51 (VHH, not shown: small tags and cut ends, periplasmic extract) VHH: QVQLQESGGGLVQPGGSLRLSCAASGFTFSTYAMSWVRQAPGKGLEWVSAVNSGGLSTDYADSVEGRFTISRDDAKNMLFLQMNRLKPEDTARYYCAKYEDCSDYVCDRAGYWGQGTQVTVSS
1240
